tested system: P1243:G4S:P1156 two-warhead evasin (Amblyomma americanum | Ixodes ricinus, UniProt A0A0C9S461;V5HBW0)
protocol description: BLI
Note to self: class = bucket of Kd, per bucket A: < 2 nM; bucket B: ≥ 2 nM and < 9 nM; bucket C: ≥ 9 nM

| binder | class |
| --- | --- |
| CCL19 (protein) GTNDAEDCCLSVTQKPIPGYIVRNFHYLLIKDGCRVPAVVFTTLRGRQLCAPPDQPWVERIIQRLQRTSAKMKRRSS | bucket B |
| CCL14 (protein) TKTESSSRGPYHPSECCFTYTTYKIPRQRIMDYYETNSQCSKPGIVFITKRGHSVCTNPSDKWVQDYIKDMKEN | bucket B |
| CCL4 (protein) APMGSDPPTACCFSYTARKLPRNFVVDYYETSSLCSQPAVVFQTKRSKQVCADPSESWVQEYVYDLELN | bucket C |
| CCL4L1 (protein) APMGSDPPTACCFSYTARKLPRNFVVDYYETSSLCSQPAVVFQTKRGKQVCADPSESWVQEYVYDLELN | bucket C |
| CCL24 (protein) VVIPSPCCMFFVSKRIPENRVVSYQLSSRSTCLKAGVIFTTKKGQQFCGDPKQEWVQRYMKNLDAKQKKASPRARAVAVKGPVQRYPGNQTTC | bucket C |
| CCL18 (protein) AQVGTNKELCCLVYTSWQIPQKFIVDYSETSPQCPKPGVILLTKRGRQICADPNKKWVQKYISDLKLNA | bucket A |
| CCL16 (protein) QPKVPEWVNTPSTCCLKYYEKVLPRRLVVGYRKALNCHLPAIIFVTKRNREVCTNPNDDWVQEYIKDPNLPLLPTRNLSTVKIITAKNGQPQLLNSQ | bucket A |
| CCL17 (protein) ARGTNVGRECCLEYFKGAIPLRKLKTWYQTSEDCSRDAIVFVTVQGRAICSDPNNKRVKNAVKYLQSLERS | bucket B |
| CCL15 (protein) QFTNDAETELMMSKLPLENPVVLNSFHFAADCCTSYISQSIPCSLMKSYFETSSECSKPGVIFLTKKGRQVCAKPSGPGVQDCMKKLKPYSI | bucket C |
| CCL3L1 (ligand) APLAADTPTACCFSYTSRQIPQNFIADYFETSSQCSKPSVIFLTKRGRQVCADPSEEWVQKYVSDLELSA | bucket B |

These measurements were taken from paper PMC5910400.
